System: SMN2 mRNA
test_method_notes: RT-qPCR splicing assay panel, SMN2 canonical junction (CJ) mRNA
Type: cell-based, human
details: Homo sapiens, canonical junction (CJ) mRNA, RT-qPCR panel, Table 4A; read-out: SMN2, decrease in CJ mRNA levels, IC50
pIC50: −log10 of the molar value.
pIC50 listing for selected molecules.

A selection of reference data follows.
Cn1ncc(-c2ccc(-c3ccc(N4CC[C@@H](NC(C)(C)C)C4)nn3)c(O)c2)cc1=O = > 7.00
COc1cc(-c2ccc(-c3cc(C#N)c(N4CC[C@H](NC5CCC5)C4)nn3)c(O)c2)cnn1 = 6.00 to 7.00
Cn1cc2cc(-c3ccc(-c4ccc(N5CCC(NC6CCC6)C5)nn4)c(O)c3)cc(F)c2n1 (centres unmarked) = > 7.00
Cc1ncc(-c2ccc(-c3ccc(OC4CC(C)(C)NC(C)(C)C4)nn3)c(O)c2)s1 = > 7.00
Cc1cc(-c2ccc(-c3ccc(N4CCC(NCC5CC5)C4)nn3)c(O)c2)ncn1 (centres unmarked) = 6.00 to 7.00

// COc1cc(-c2cc(O)c(-c3ccc(OC4CC(C)(C)NC(C)(C)C4)nn3)cc2F)cnn1 : pIC50 value = > 7.00

Value of pIC50 reported for the molecule Cc1ncc(-c2cc(O)c(-c3ccc(N4CCC(NC5CCOCC5)C4)nn3)cc2F)s1 (centres unmarked) is > 7.00

Form field pIC50, entry COc1nc(-c2ccc(N3CCC(NC(C)(C)C)C3)nn2)ccc1-c1cnc(C)s1 (centres unmarked) : > 7.00
